Test system: RXF 393 renal
Experiment Notes: NCI-60 one-dose screen, 48 h (100 = growth as untreated, 0 = no growth, -100 = all killed)
Measurement Conditions: 10 µM
The panel holds about 83,000 compounds, 20% with a hit somewhere; the sample as a whole holds those more often.
Observable: growth (%)
Provide the reading as a plain figure in %.

Query: Please report growth for the following molecule: N#Cc1c(-c2ccc(Cl)cc2)csc1NC(=O)Nc1ccc(Cl)c(C(F)(F)F)c1
Response: 33.7

Query: Please report growth for the following molecule: O=C(N/N=C/c1ccc(Cl)cc1)c1ccc(Cc2n[nH]c(=O)c3cccnc23)cc1
Response: 91.2

Query: Please report growth for the following molecule: COc1ccc(Cc2cnc(N)nc2N)cc1OC
Response: 105

Query: Please report growth for the following molecule: Cc1ccc(-c2c3c(N)nc(-c4cccnc4)nc3nc3c2c(C)nn3-c2ccccc2)cc1
Response: 79

Query: Please report growth for the following molecule: COc1ccc(-c2nn(-c3cccc(Cl)c3)cc2/C=C2\NC(=S)N(c3ccc(Cl)cc3)C2=O)cc1
Response: -7.45

Query: Please report growth for the following molecule: CCOC(=O)CSc1nc(-c2cc(OC)ccc2OC)cc(-c2ccc(OC)cc2)c1C#N
Response: 70.3

Query: Please report growth for the following molecule: N#Cc1c(-c2ccc(Cl)cc2)n(O)c2ccccc12
Response: 9.91

Query: Please report growth for the following molecule: Cc1ccc(N=Nc2ccccc2)cc1
Response: 106

Query: Please report growth for the following molecule: COc1ccc(C2=Cn3c(CCC(=O)c4nc5ccccc5[nH]4)nnc3SC2)cc1
Response: 112

Query: Please report growth for the following molecule: CC(=O)[C@H]1CC[C@]2(C)[C@@H]1CC[C@@H]1[C@@]3(C)CC(CCC#N)(CCC#N)C(=O)C(C)(C)[C@@H]3CC[C@]12C
Response: 90.6

Query: Please report growth for the following molecule: CC(C)(O)CCl
Response: 117

Query: Please report growth for the following molecule: CCOC(=O)C1=CSC2=NC3=C(CCC/C3=C\c3cc(OC)c(OC)c(OC)c3)C(c3cc(OC)c(OC)c(OC)c3)N12 (stereo not given)
Response: 32.7

Query: Please report growth for the following molecule: C[C@]12CC[C@@H]3c4ccc(O)cc4CC[C@H]3[C@@H]1CC[C@@H]2NS(=O)(=O)c1ccc(C(F)(F)F)cc1
Response: 22.9

Query: Please report growth for the following molecule: COC1=CC(=O)OC(c2ccc(OC)cc2)C1 (stereo not given)
Response: 113

Query: Please report growth for the following molecule: O=C1c2ccccc2-c2c1c1cccnc1c(=O)n2C[C@H](O)CO
Response: 91

Query: Please report growth for the following molecule: O=C1OC(C(Cl)(Cl)Cl)OC1C(Cl)(Cl)Cl (stereo not given)
Response: 116

Query: Please report growth for the following molecule: COc1ccc(C2CC(c3cccs3)=NN2c2ccc(S(N)(=O)=O)cc2)cc1 (stereo not given)
Response: 93.6

Query: Please report growth for the following molecule: OC[C@H]1OC([S-])[C@H](O)[C@@H](O)[C@@H]1O.[Au+] (stereo not given in full)
Response: 93.2

Query: Please report growth for the following molecule: CCOC(=O)c1cc(C(=O)c2cc(OC)cc(OC)c2)n2nc(C)ccc12
Response: 13.6

Query: Please report growth for the following molecule: CCC(C)[C@H](NC(C)=O)C(=O)N[C@@H](CCCNC(=N)N)C(=O)N[C@@H](CCCCN)C(=O)N[C@@H](CC1CCC(O)CC1)C(=O)NC(C(=O)N[C@@H](CCSC)C(=O)N[C@@H](CCCNC(=N)N)C(=O)N[C@@]1(C)CCC/C=C\CCC[C@@](C)(C(=O)NC(C(=O)N[C@@H](CCC(=O)O)C(=O)N[C@@H](CC(C)C)C(=O)N[C@H](C(=O)N[C@@H](CCC(=O)O)C(N)=O)C(C)C)[C@@H](C)O)NC(=O)[C@H](CCC(N)=O)NC(=O)[C@H](CC(C)C)NC(=O)[C@H](CC(C)C)NC1=O)[C@@H](C)O (stereo not given in full)
Response: 86.4

Query: Please report growth for the following molecule: COc1ccc(/C=C/c2nnc(/C=C/c3ccc(OC)c(OC)c3)o2)cc1OC
Response: 27.4

Query: Please report growth for the following molecule: O=C(CCCSc1nc(-c2ccccc2)cc(-c2ccc(Cl)cc2)n1)NO
Response: -19.2

Query: Please report growth for the following molecule: O=S(=O)(Oc1ccc(-c2ccc3sccc3c2)cc1)c1ccc(F)cc1
Response: 110

Query: Please report growth for the following molecule: O=C(CCCCCCC(=O)Nc1ccccc1)NO
Response: -39.9

Query: Please report growth for the following molecule: Cc1cc(SC#N)cc(C(C)(C)C)c1O
Response: 118

Query: Please report growth for the following molecule: CN(C)CCCSc1ccccc1NC1=C(Cl)C(=O)C(Nc2ccccc2SCCCN(C)C)=C(Cl)C1=O
Response: 45.8

Query: Please report growth for the following molecule: Cn1c2ccccc2c2c3[nH][nH]c(=O)c3c3c4ccccc4[nH]c3c21
Response: -36.7

Query: Please report growth for the following molecule: Cc1ccc(C(=O)/C=C/c2ccccc2)s1
Response: 94.3

Query: Please report growth for the following molecule: CN(C)CCCOc1ccc(OCCCN(C)C)c2c1C(=O)c1ccccc1C2=O
Response: -9.08

Query: Please report growth for the following molecule: CC(=O)Nc1ccc(CC[C@H]2CCC/C=C/[C@@H]3C[C@H](O)C[C@H]3[C@H](O)/C=C/C(=O)O2)cc1
Response: -32.1

Query: Please report growth for the following molecule: COc1cccc(CNc2cccc3cn[nH]c23)c1O
Response: 113

Query: Please report growth for the following molecule: CCCCN(CCCC)C(=O)[C@H](CC)[C@@H]1CC[C@@H](C)[C@@H]([C@H](C)[C@@H](O)[C@@H](C)C(=O)[C@H](CC)C2O[C@]3(C=C[C@@H](O)[C@]4(CC[C@@](C)([C@H]5CC[C@](O)(CC)[C@H](C)O5)O4)O3)[C@H](C)C[C@@H]2C)O1 (stereo not given in full)
Response: -3.81

Query: Please report growth for the following molecule: COc1cc(-c2nn(-c3ccc(NC(=O)NCCNS(=O)(=O)c4ccc(F)cc4)cc3)cc2-c2ccncc2)ccc1Cl
Response: 2.59

Query: Please report growth for the following molecule: CCCc1nc(C(C)(C)O)c(C(=O)O)n1Cc1ccc(-c2ccccc2-c2nn[nH]n2)cc1
Response: 117

Query: Please report growth for the following molecule: CN(C)CCCOc1ccccc1NC1=C(Cl)C(=O)C(Nc2ccccc2OCCCN(C)C)=C(Cl)C1=O
Response: -98.2

---

System: HOP-62 NSCLC
Experiment Notes: NCI-60 one-dose screen, 48 h (100 = growth as untreated, 0 = no growth, -100 = all killed)
Measurement Conditions: 10 µM
The panel holds about 83,000 compounds, 20% with a hit somewhere; the sample as a whole holds those more often.
Please respond with reported growth for every item in the list.
Provide the reading as a plain figure in %.

Query: Please report growth for the following molecule: COc1cc(C(=O)/C=C/c2c[nH]c3ccccc23)cc(OC)c1OC
Response: 41.1

Query: Please report growth for the following molecule: CCOC(=O)c1cc(C(=O)c2ccc(OC)c(OC)c2)n2ccncc12
Response: 106

Query: Please report growth for the following molecule: CC(C)(C)OC(=O)N1CCc2c(sc3ncnc(N/N=C/c4cccc(Br)c4)c23)C1
Response: 45.1

Query: Please report growth for the following molecule: CC(C)CCN(CCC(C)C)CC(=O)Nc1ccc(S(=O)(=O)c2ccc(NC(=O)CN(CCC(C)C)CCC(C)C)cc2)cc1
Response: 67.5

Query: Please report growth for the following molecule: O=C1OC(C(Cl)(Cl)Cl)OC1C(Cl)(Cl)Cl (stereo not given)
Response: 121

Query: Please report growth for the following molecule: c1ccc(/C(=N\Nc2ccc3ccccc3n2)c2ccccn2)cc1
Response: 5.49

Query: Please report growth for the following molecule: CN(C)CCOc1cccc(-c2nc3sccn3c2-c2ccnc(S(C)(=O)=O)n2)c1
Response: 79

Query: Please report growth for the following molecule: O=C1/C=C/[C@@H](O)[C@@H]2C[C@@H](O)C[C@H]2/C=C/CCC[C@H](CCc2ccc(C(F)(F)F)cc2)O1
Response: -4.15

Query: Please report growth for the following molecule: Cc1ccc(S(=O)(=O)N(C)CCCCCC(=O)O)cc1
Response: 92.3

Query: Please report growth for the following molecule: CC(C)(C)OC(=O)N1CCc2c(sc3ncnc(N/N=C/c4cccc5ccccc45)c23)C1
Response: 27.8

Query: Please report growth for the following molecule: CC(C)C1=C(O)C2=C(C(=O)C1=O)[C@@]1(C)CCCC(C)(C)[C@@H]1CC2
Response: 70.6

Query: Please report growth for the following molecule: CN(C)c1ncnc2c1nnn2C1OC(CO)C(O)C1O (stereo not given)
Response: 32.7

Query: Please report growth for the following molecule: O=S(=O)(Oc1ccc(-c2ccc3sccc3c2)cc1)c1ccccc1
Response: 113

Query: Please report growth for the following molecule: COC(=O)CC[C@@H](C)[C@H]1CC[C@H]2[C@@H]3CC[C@@H]4C[C@H](O)CC[C@]4(C)[C@H]3C[C@H](O)[C@]12C
Response: 109

Query: Please report growth for the following molecule: COc1ccc(-c2cc(-c3ccccc3)nc(SCCCC(=O)NO)n2)cc1
Response: -20

Query: Please report growth for the following molecule: COc1cc2c(Nc3ccc(S(N)(=O)=O)cc3)ncnc2c(OC)c1OC
Response: 92.3

Query: Please report growth for the following molecule: O=C(CN1CCN(C(=O)c2ccccc2)CC1)Nc1ccccc1SCc1ccccc1
Response: 89.6

Query: Please report growth for the following molecule: CN(C)CCOc1ccccc1NC1=C(Cl)C(=O)C(Nc2ccccc2OCCN(C)C)=C(Cl)C1=O
Response: 110

Query: Please report growth for the following molecule: CC(CN(C)C)Oc1ccccc1NC1=C(Cl)C(=O)C(Nc2ccccc2OC(C)CN(C)C)=C(Cl)C1=O (stereo not given)
Response: -97.6

Query: Please report growth for the following molecule: COc1cc(C)ccc1Oc1nc(Nc2ccc(N3CCOCC3)cc2)ncc1NC(=O)Nc1cc(C(F)(F)F)cc(C(F)(F)F)c1
Response: 58.5
